All values here come from patent US20240132624A1.

- Assayed target: T1, human FcRn/b2M (human, UniProt P61769 21-119, biotinylated)
- T1 construct: bought recombinant biotinylated protein (ACRO FCM-H82W4 or Immunitrack ITF01); also called hFcRn; hFcRn/hb2M
- T1 sequence (chain, as listed by the source limits assumed, chain 1 of 2): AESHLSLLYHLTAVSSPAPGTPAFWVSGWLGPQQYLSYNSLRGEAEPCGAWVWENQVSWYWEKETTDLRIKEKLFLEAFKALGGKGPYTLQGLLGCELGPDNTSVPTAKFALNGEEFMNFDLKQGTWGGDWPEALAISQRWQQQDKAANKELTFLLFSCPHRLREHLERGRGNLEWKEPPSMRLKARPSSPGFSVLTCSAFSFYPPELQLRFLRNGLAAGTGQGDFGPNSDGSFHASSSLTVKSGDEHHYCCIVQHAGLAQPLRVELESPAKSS
- T1 sequence (P61769 21-119 limits assumed, chain 2 of 2): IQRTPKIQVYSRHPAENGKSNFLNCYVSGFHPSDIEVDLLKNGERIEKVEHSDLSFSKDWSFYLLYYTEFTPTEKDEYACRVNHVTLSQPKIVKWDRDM
- Protocol details: SPR pH 7.4;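 further: surface plasmon resonance kinetics, periplasmic extracts diluted 1:10 flowed over immobilized target at 25 °C, 120 s association then 600–3600 s dissociation, buffer with 150 mM NaCl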
Cut-off 0.05 s⁻¹ on koff, inclusive. At or above means fulfilled; below means not fulfilled.

These recorded examples may help you get a feel for the data.
| Binder | Label |
| --- | --- |
| T0263018B11 S100K (VHH, name in Kabat numbering, FLAG3-His6 tagged) VHH: EVQLVESGGGVVQPGGSLRLSCAASGFTFSSYAMYWVRQAPGKGLEWVSAISSGGGSTDYADSVKGRFTISRDNSKNTLYLQMNSLRPEDTALYYCAADTLYTKLTWYSYWGQGTLVTVSS | fulfilled |
| T0263018B11 Y32L (VHH, name in Kabat numbering, FLAG3-His6 tagged) VHH: EVQLVESGGGVVQPGGSLRLSCAASGFTFSSLAMYWVRQAPGKGLEWVSAISSGGGSTDYADSVKGRFTISRDNSKNTLYLQMNSLRPEDTALYYCAADTLYTSLTWYSYWGQGTLVTVSS | fulfilled |
| T0263018B11 D58V (VHH, name in Kabat numbering, FLAG3-His6 tagged) VHH: EVQLVESGGGVVQPGGSLRLSCAASGFTFSSYAMYWVRQAPGKGLEWVSAISSGGGSTVYADSVKGRFTISRDNSKNTLYLQMNSLRPEDTALYYCAADTLYTSLTWYSYWGQGTLVTVSS | fulfilled |
| T0263018B11 G54E (VHH, name in Kabat numbering, FLAG3-His6 tagged) VHH: EVQLVESGGGVVQPGGSLRLSCAASGFTFSSYAMYWVRQAPGKGLEWVSAISSGEGSTDYADSVKGRFTISRDNSKNTLYLQMNSLRPEDTALYYCAADTLYTSLTWYSYWGQGTLVTVSS | not fulfilled |
| T0263018B11 S56K (VHH, name in Kabat numbering, FLAG3-His6 tagged) VHH: EVQLVESGGGVVQPGGSLRLSCAASGFTFSSYAMYWVRQAPGKGLEWVSAISSGGGKTDYADSVKGRFTISRDNSKNTLYLQMNSLRPEDTALYYCAADTLYTSLTWYSYWGQGTLVTVSS | fulfilled |
| T0263018B11 S52aN (VHH, name in Kabat numbering, FLAG3-His6 tagged) VHH: EVQLVESGGGVVQPGGSLRLSCAASGFTFSSYAMYWVRQAPGKGLEWVSAISNGGGSTDYADSVKGRFTISRDNSKNTLYLQMNSLRPEDTALYYCAADTLYTSLTWYSYWGQGTLVTVSS | fulfilled |
| T0263018B11 S52P (VHH, name in Kabat numbering, FLAG3-His6 tagged) VHH: EVQLVESGGGVVQPGGSLRLSCAASGFTFSSYAMYWVRQAPGKGLEWVSAIPSGGGSTDYADSVKGRFTISRDNSKNTLYLQMNSLRPEDTALYYCAADTLYTSLTWYSYWGQGTLVTVSS | not fulfilled |

# next binder below
query: Dear colleague, could you confirm whether T0263018B11 S52aY (VHH, name in Kabat numbering, FLAG3-His6 tagged) VHH: EVQLVESGGGVVQPGGSLRLSCAASGFTFSSYAMYWVRQAPGKGLEWVSAISYGGGSTDYADSVKGRFTISRDNSKNTLYLQMNSLRPEDTALYYCAADTLYTSLTWYSYWGQGTLVTVSS has koff at or above 0.05 s⁻¹?
result: not fulfilled
